These data points were gathered from patent US11325899B2.

Measured pIC50 values are reported for all entries that follow.
test.system: PTGER4 (EP4) (Homo sapiens, UniProt P35408)
Sequence (P35408 whole entry): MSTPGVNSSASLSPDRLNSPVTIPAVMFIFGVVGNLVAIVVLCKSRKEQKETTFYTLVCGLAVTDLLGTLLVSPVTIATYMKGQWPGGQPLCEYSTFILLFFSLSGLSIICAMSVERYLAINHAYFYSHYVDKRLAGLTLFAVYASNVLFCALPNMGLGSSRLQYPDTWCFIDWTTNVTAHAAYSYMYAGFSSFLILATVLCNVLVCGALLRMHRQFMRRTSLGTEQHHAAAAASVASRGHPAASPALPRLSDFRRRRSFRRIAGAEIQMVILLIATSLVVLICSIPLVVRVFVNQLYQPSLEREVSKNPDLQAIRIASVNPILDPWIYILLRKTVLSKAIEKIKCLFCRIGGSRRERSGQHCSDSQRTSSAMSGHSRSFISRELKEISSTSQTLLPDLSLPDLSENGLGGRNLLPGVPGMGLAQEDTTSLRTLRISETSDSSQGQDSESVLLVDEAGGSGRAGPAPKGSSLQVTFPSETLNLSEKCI
method.summary: hEP4 b-arrestin assay (PathHunter HEK 293 PTGER4 b-arrestin cells)
recorded.conditions: antagonistic activity, beta-arrestin assay; read-out: hEP4 b-arr IC50
Experimental: The antagonistic activities of the compounds of formula (I) on the EP2 and EP4 receptors are determined in accordance with the following experimental method. […] PathHunter Glo Detection Kit components are thawed and mix according to manufacturer's instructions: 1 part Galacton Star Substrate with 5 parts Emerald II™ Solution, and 19 parts of PathHunter Cell Assay Buffer, respectively. […] Luminescence counts are read on a BMG Fluostar Optima reader according to manufacturer's instructions. […]
pIC50: −log10 of the molar value.
assay.endpoint: pIC50

molecule: CCOc1cc(-c2cc(NCCc3c(C)sc4c(OC)ccc(Cl)c34)ncn2)sc1C(=O)O
assay.endpoint: pIC50
data.value: 7.74
--
molecule: CCOc1cc(-c2cc(NCCc3c(C)sc4c(C)cc(F)cc34)ncn2)sc1-c1nnn[nH]1
assay.endpoint: pIC50
data.value: 8.15
--
molecule: CCOc1cc(-c2cc(NCCc3c(C)oc4c(OC)cc(Cl)cc34)ncn2)ccc1CC(=O)O
assay.endpoint: pIC50
data.value: 6.80
--
molecule: CCOc1cc(-c2cc(NCCc3c(C)sc4c(C)cc(F)cc34)ncn2)ccc1-c1noc(=O)[nH]1
assay.endpoint: pIC50
data.value: 7.33
--
molecule: CCOc1cc(-c2cc(NCCc3c(C)sc4c(C)ccc(Cl)c34)ncn2)sc1C(=O)O
assay.endpoint: pIC50
data.value: 7.60
--
molecule: CCOc1nc(-c2cc(NCCc3c(C)sc4c(C)cc(F)cc34)ncn2)sc1-c1noc(=O)[nH]1
assay.endpoint: pIC50
data.value: 8.30
--
molecule: CCc1nc(-c2cc(NCCc3c(C)sc4c(C)cc(F)cc34)ncn2)sc1-c1noc(=O)[nH]1
assay.endpoint: pIC50
data.value: 7.77
--
molecule: Cc1sc2c(C)cc(F)cc2c1CCNc1cc(-c2ccc(C(=O)O)c(OCC(C)C)c2)ncn1
assay.endpoint: pIC50
data.value: 6.51
--
molecule: Cc1sc2c(C)cc(F)cc2c1CCNc1cc(-c2ccc3[nH]ccc3c2)ncn1
assay.endpoint: pIC50
data.value: 6.68
--
molecule: CCOc1cc(-c2cc(NCCc3c(C)oc4c(OC)cc(Cl)cc34)ncn2)sc1C(=O)O
assay.endpoint: pIC50
data.value: 7.92
--
molecule: CSc1cc(-c2cc(NCCc3c(C)oc4ccccc34)ncn2)ccc1C(=O)O
assay.endpoint: pIC50
data.value: 5.92
--
molecule: CSc1cc(-c2cc(NCCc3c(C)sc4c(C)c(F)ccc34)ncn2)ccc1C(=O)O
assay.endpoint: pIC50
data.value: 6.55
--
molecule: CCCSc1cc(-c2cc(NCCc3c(C)sc4ccccc34)ncn2)ccc1C(=O)O
assay.endpoint: pIC50
data.value: 5.99
--
molecule: Cc1sc2c(Cl)ccc(Cl)c2c1CCNc1cc(-c2ccc(C(=O)O)c(O)c2)ncn1
assay.endpoint: pIC50
data.value: 5.51
--
molecule: CCOc1cc(-c2cc(NCCc3c(Br)sc4c(C)cc(F)cc34)ncn2)ccc1C(=O)O
assay.endpoint: pIC50
data.value: 6.34
--
molecule: CCOc1cc(-c2cc(NCCc3c(C)sc4c(C)ccc(F)c34)ncn2)ccc1C(=O)O
assay.endpoint: pIC50
data.value: 6.61
--
molecule: Cc1oc2c(C)cc(F)cc2c1CCNc1cc(-c2ccc(C(=O)O)c(OC3CCCC3)c2)ncn1
assay.endpoint: pIC50
data.value: 6.04
--
molecule: CCCSc1cc(-c2cc(NCCc3c(C)oc4ccccc34)ncn2)ccc1C(=O)O
assay.endpoint: pIC50
data.value: 5.99
--
molecule: CCOc1cc(-c2cc(NCCc3c(C)oc4c(C)cc(F)cc34)ncn2)sc1C(=O)O
assay.endpoint: pIC50
data.value: 7.38
--
molecule: CCOc1cc(-c2cc(NCCc3c(C)sc4c(C)ccc(Cl)c34)ncn2)ccc1C(=O)O
assay.endpoint: pIC50
data.value: 6.39
--
molecule: CCOc1cc(-c2cc(NCCc3c(C#N)sc4c(C)cc(F)cc34)ncn2)cc(F)c1CC(=O)O
assay.endpoint: pIC50
data.value: 7.27
